- Tested system: tyrosinase (EC 1.14.18.1) (Agaricus bisporus, UniProt C7FF04)
- Sequence (C7FF04 1-392): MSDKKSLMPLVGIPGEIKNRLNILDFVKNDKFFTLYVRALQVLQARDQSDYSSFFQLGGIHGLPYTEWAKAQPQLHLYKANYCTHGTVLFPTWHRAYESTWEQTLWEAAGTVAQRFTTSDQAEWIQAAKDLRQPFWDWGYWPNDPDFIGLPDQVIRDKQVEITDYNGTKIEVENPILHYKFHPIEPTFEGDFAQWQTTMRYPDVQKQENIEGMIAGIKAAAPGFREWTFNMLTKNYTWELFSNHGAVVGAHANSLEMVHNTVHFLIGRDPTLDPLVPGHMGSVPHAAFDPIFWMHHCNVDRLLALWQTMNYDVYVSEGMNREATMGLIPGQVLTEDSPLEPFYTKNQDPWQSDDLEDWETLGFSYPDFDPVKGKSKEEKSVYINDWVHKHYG
- Experimental protocol: Tyrosinase inhibitory assay (L-Dopa oxidation)
- Type: biochemical
- Conditions: tyrosinase, L-Dopa substrate, mean of three independent experiments
Readout name: IC50 (µM)
Field format: number, assumed µM, no unit text.

Request: What reported IC50 corresponds to CCOC(=O)C1=C(C)N=C2SC=C(C)N2C1c1cccc(F)c1 (centres unmarked) [Compound 6c] on tyrosinase (EC 1.14.18.1) (Agaricus bisporus, UniProt C7FF04)?
Result: 56

Request: What reported IC50 corresponds to CCOC(=O)C1=C(C)N=C2SC=C(C)N2C1c1ccccc1Cl (centres unmarked) [Compound 6d] on tyrosinase (EC 1.14.18.1) (Agaricus bisporus, UniProt C7FF04)?
Result: 34.2

Request: What reported IC50 corresponds to CCOC(=O)C1=C(C)N=C2SC=C(C)N2C1c1cccc(Br)c1 (centres unmarked) [Compound 6f] on tyrosinase (EC 1.14.18.1) (Agaricus bisporus, UniProt C7FF04)?
Result: 85.3

Request: What reported IC50 corresponds to CCOC(=O)C1=C(C)N=C2SC=C(C)N2C1c1ccccc1F (centres unmarked) [Compound 6b] on tyrosinase (EC 1.14.18.1) (Agaricus bisporus, UniProt C7FF04)?
Result: 40.8

Request: What reported IC50 corresponds to CCOC(=O)C1=C(C)N=C2SC=C(C)N2C1c1ccccc1 (centres unmarked) [Compound 6a] on tyrosinase (EC 1.14.18.1) (Agaricus bisporus, UniProt C7FF04)?
Result: 28.5
